# TEST: Toxicokinetics of formula (II) and methotrexate after individual and concomitant administration to Beagle dogs
# Format: in vivo
# CONDITION NOTES: female, Beagle, dog, plasma, po, 2.5 mg/kg, Group 5 (+25SC, in combination with 25 mg/kg formula (II)), methotrexate 2.5 mg/kg (reduced from 10), week 13, female Beagle dogs, mean
PROPERTY NAME: half-life (h)
Numbers only, in h.

Exam item: Respond only with half-life recorded for CN(Cc1cnc2nc(N)nc(N)c2n1)c1ccc(C(=O)N[C@@H](CCC(=O)O)C(=O)O)cc1 [MTX, methotrexate, reference compound]
Marked response: 2.7

---

# TEST: Toxicokinetics of formula (II) and methotrexate after individual and concomitant administration to Beagle dogs
# Type: in vivo
# CONDITION NOTES: female, Beagle, dog, plasma, po, 10 mg/kg, Group 5 (+25SC, in combination with 25 mg/kg formula (II)), methotrexate 10 mg/kg, day 1, female Beagle dogs, mean
PROPERTY NAME: AUC(0-inf)

Exam item: Respond only with AUC(0-inf) recorded for CN(Cc1cnc2nc(N)nc(N)c2n1)c1ccc(C(=O)N[C@@H](CCC(=O)O)C(=O)O)cc1 [MTX, methotrexate, reference compound]
Marked response: 5000 ng·h/mL

---

# TEST: Toxicokinetics of formula (II) and methotrexate after individual and concomitant administration to Beagle dogs
# Assay type: in vivo
# CONDITION NOTES: female, Beagle, dog, plasma, po, 25 mg/kg, Group 2, formula (II) 25 mg/kg alone, week 13, female Beagle dogs, mean
PROPERTY NAME: AUC(0-inf) (µg·h/mL)
Numbers only, in µg·h/mL.

Exam item: Respond only with AUC(0-inf) recorded for COc1cccc(-c2ccc(NC(=O)C3=C(C(=O)O)CCC3)c(F)c2)c1
Marked response: 1010

---

# TEST: Toxicokinetics of formula (II) and methotrexate after individual and concomitant administration to Beagle dogs
# Format: in vivo
# CONDITION NOTES: female, Beagle, dog, plasma, po, 10 mg/kg, Group 4 (+10SC, in combination with 10 mg/kg formula (II)), methotrexate 10 mg/kg, day 1, female Beagle dogs, mean
PROPERTY NAME: AUC(0-inf) (ng·h/mL)
One number for each entry, in ng·h/mL.

Exam item: Respond only with AUC(0-inf) recorded for CN(Cc1cnc2nc(N)nc(N)c2n1)c1ccc(C(=O)N[C@@H](CCC(=O)O)C(=O)O)cc1 [MTX, methotrexate, reference compound]
Marked response: 7500

---

# TEST: Toxicokinetics of formula (II) and methotrexate after individual and concomitant administration to Beagle dogs
# Assay type: in vivo
# CONDITION NOTES: male, Beagle, dog, plasma, po, 2.5 mg/kg, Group 4 (+10SC, in combination with 10 mg/kg formula (II)), methotrexate 2.5 mg/kg (reduced from 10), week 13, male Beagle dogs, mean
PROPERTY NAME: Cmax (ng/mL)
Give bare numbers, in ng/mL.

Exam item: Respond only with Cmax recorded for CN(Cc1cnc2nc(N)nc(N)c2n1)c1ccc(C(=O)N[C@@H](CCC(=O)O)C(=O)O)cc1 [MTX, methotrexate, reference compound]
Marked response: 400

---

# TEST: Toxicokinetics of formula (II) and methotrexate after individual and concomitant administration to Beagle dogs
# Type: in vivo
# CONDITION NOTES: male, Beagle, dog, plasma, po, 10 mg/kg, Group 4 (+10SC, in combination with 10 mg/kg formula (II)), methotrexate 10 mg/kg, day 1, male Beagle dogs, mean
PROPERTY NAME: half-life (h)
One number for each entry, in h.

Exam item: Respond only with half-life recorded for CN(Cc1cnc2nc(N)nc(N)c2n1)c1ccc(C(=O)N[C@@H](CCC(=O)O)C(=O)O)cc1 [MTX, methotrexate, reference compound]
Marked response: 1.6

---

# TEST: Toxicokinetics of formula (II) and methotrexate after individual and concomitant administration to Beagle dogs
# Format: in vivo
# CONDITION NOTES: male, Beagle, dog, plasma, po, 2.5 mg/kg, Group 5 (+25SC, in combination with 25 mg/kg formula (II)), methotrexate 2.5 mg/kg (reduced from 10), week 13, male Beagle dogs, mean
PROPERTY NAME: half-life (min)
Answers are plain numbers, in min.

Exam item: Respond only with half-life recorded for CN(Cc1cnc2nc(N)nc(N)c2n1)c1ccc(C(=O)N[C@@H](CCC(=O)O)C(=O)O)cc1 [MTX, methotrexate, reference compound]
Marked response: 126

---

# TEST: Toxicokinetics of formula (II) and methotrexate after individual and concomitant administration to Beagle dogs
# Type: in vivo
# CONDITION NOTES: male, Beagle, dog, plasma, po, 10 mg/kg, Group 4 (+MTX), formula (II) 10 mg/kg, day 1, male Beagle dogs, mean
PROPERTY NAME: Cmax (ng/mL)
One number for each entry, in ng/mL.

Exam item: Respond only with Cmax recorded for COc1cccc(-c2ccc(NC(=O)C3=C(C(=O)O)CCC3)c(F)c2)c1
Marked response: 30300

---

# TEST: Toxicokinetics of formula (II) and methotrexate after individual and concomitant administration to Beagle dogs
# Format: in vivo
# CONDITION NOTES: male, Beagle, dog, plasma, po, 25 mg/kg, Group 2, formula (II) 25 mg/kg alone, week 13, male Beagle dogs, mean
PROPERTY NAME: AUC(0-inf) (µg·h/mL)
One number for each entry, in µg·h/mL.

Exam item: Respond only with AUC(0-inf) recorded for COc1cccc(-c2ccc(NC(=O)C3=C(C(=O)O)CCC3)c(F)c2)c1
Marked response: 601

---

# TEST: Toxicokinetics of formula (II) and methotrexate after individual and concomitant administration to Beagle dogs
# Format: in vivo
# CONDITION NOTES: male, Beagle, dog, plasma, po, 25 mg/kg, Group 2, formula (II) 25 mg/kg alone, week 13, male Beagle dogs, mean
PROPERTY NAME: half-life (h)
Answers are plain numbers, in h.

Exam item: Respond only with half-life recorded for COc1cccc(-c2ccc(NC(=O)C3=C(C(=O)O)CCC3)c(F)c2)c1 [Formula (II)]
Marked response: 6.1

---

# TEST: Toxicokinetics of formula (II) and methotrexate after individual and concomitant administration to Beagle dogs
# Assay type: in vivo
# CONDITION NOTES: male, Beagle, dog, plasma, po, 10 mg/kg, Group 5 (+25SC, in combination with 25 mg/kg formula (II)), methotrexate 10 mg/kg, day 1, male Beagle dogs, mean
PROPERTY NAME: half-life (h)
Answers are plain numbers, in h.

Exam item: Respond only with half-life recorded for CN(Cc1cnc2nc(N)nc(N)c2n1)c1ccc(C(=O)N[C@@H](CCC(=O)O)C(=O)O)cc1 [MTX, methotrexate, reference compound]
Marked response: 2.2

---

# TEST: Toxicokinetics of formula (II) and methotrexate after individual and concomitant administration to Beagle dogs
# Type: in vivo
# CONDITION NOTES: male, Beagle, dog, plasma, po, 25 mg/kg, Group 2, formula (II) 25 mg/kg alone, day 1, male Beagle dogs, mean
PROPERTY NAME: AUC(0-inf) (µg·h/mL)
Answers are plain numbers, in µg·h/mL.

Exam item: Respond only with AUC(0-inf) recorded for COc1cccc(-c2ccc(NC(=O)C3=C(C(=O)O)CCC3)c(F)c2)c1
Marked response: 289

---

# TEST: Toxicokinetics of formula (II) and methotrexate after individual and concomitant administration to Beagle dogs
# Assay type: in vivo
# CONDITION NOTES: male, Beagle, dog, plasma, po, 25 mg/kg, Group 5 (+MTX), formula (II) 25 mg/kg, day 1, male Beagle dogs, mean
PROPERTY NAME: half-life (h)
Answers are plain numbers, in h.

Exam item: Respond only with half-life recorded for COc1cccc(-c2ccc(NC(=O)C3=C(C(=O)O)CCC3)c(F)c2)c1
Marked response: 8.4

---

# TEST: Toxicokinetics of formula (II) and methotrexate after individual and concomitant administration to Beagle dogs
# Assay type: in vivo
# CONDITION NOTES: female, Beagle, dog, plasma, po, 10 mg/kg, Group 3, methotrexate 10 mg/kg alone, day 1, female Beagle dogs, mean
PROPERTY NAME: AUC(0-inf) (ng·h/mL)
One number for each entry, in ng·h/mL.

Exam item: Respond only with AUC(0-inf) recorded for CN(Cc1cnc2nc(N)nc(N)c2n1)c1ccc(C(=O)N[C@@H](CCC(=O)O)C(=O)O)cc1 [MTX, methotrexate, reference compound]
Marked response: 5300

---

# TEST: Toxicokinetics of formula (II) and methotrexate after individual and concomitant administration to Beagle dogs
# Type: in vivo
# CONDITION NOTES: male, Beagle, dog, plasma, po, 25 mg/kg, Group 2, formula (II) 25 mg/kg alone, day 1, male Beagle dogs, mean
PROPERTY NAME: Cmax (ng/mL)
Give bare numbers, in ng/mL.

Exam item: Respond only with Cmax recorded for COc1cccc(-c2ccc(NC(=O)C3=C(C(=O)O)CCC3)c(F)c2)c1
Marked response: 22700

---

# TEST: Toxicokinetics of formula (II) and methotrexate after individual and concomitant administration to Beagle dogs
# Assay type: in vivo
# CONDITION NOTES: female, Beagle, dog, plasma, po, 10 mg/kg, Group 4 (+MTX), formula (II) 10 mg/kg, day 1, female Beagle dogs, mean
PROPERTY NAME: AUC(0-inf) (µg·h/mL)
Numbers only, in µg·h/mL.

Exam item: Respond only with AUC(0-inf) recorded for COc1cccc(-c2ccc(NC(=O)C3=C(C(=O)O)CCC3)c(F)c2)c1 [Formula (II)]
Marked response: 513

All figures here come from patent US20120028985A1.
